target: GHS1A-receptor (Homo sapiens, UniProt Q92847); construct: expressed in transfected cells; host or cells: HEK293; test: Ghrelin-agonism in HEK293 cells (intracellular calcium, FLIPR); type: cell-based; conditions: HEK293 cells permanently transfected with GHS1A-receptor, calcium fluorescence (fluo-4 or Kit-3), EC50 in M, read-out: pEC50 (converted)
Sequence (Q92847 whole entry): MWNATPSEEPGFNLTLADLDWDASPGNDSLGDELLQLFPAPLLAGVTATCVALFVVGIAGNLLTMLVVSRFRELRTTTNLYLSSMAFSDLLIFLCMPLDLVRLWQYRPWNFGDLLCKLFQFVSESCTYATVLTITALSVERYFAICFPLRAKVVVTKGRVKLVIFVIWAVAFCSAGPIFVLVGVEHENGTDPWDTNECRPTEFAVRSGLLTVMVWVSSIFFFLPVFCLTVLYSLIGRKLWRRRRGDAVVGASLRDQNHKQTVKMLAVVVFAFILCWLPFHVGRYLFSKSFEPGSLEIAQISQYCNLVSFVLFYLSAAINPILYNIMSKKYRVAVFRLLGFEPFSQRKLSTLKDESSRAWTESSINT
// assign Satisfied if EC50 falls strictly below 200 nM, else Not satisfied (ties count as Not satisfied)

Known results for compounds:
- COMPOUND: "COc1ccc(C2CCOc3ccccc3C2(O)CCCN(C)C)cn1 (racemic)"
  TESTED_SYSTEM: "GHS1A-receptor (Homo sapiens, UniProt Q92847)"
  ASSIGNED_CLASS: "Not satisfied"
- COMPOUND: "CN(C)CCCC1(O)c2ccccc2CCCC1c1ccc(Cl)cc1 (single isomer, unassigned) [Compound 3]"
  TESTED_SYSTEM: "GHS1A-receptor (Homo sapiens, UniProt Q92847)"
  ASSIGNED_CLASS: "Satisfied"
- COMPOUND: "OC1(CCCN2CCCCC2)c2ccccc2CCCC1c1ccc(F)cc1F (racemic)"
  TESTED_SYSTEM: "GHS1A-receptor (Homo sapiens, UniProt Q92847)"
  ASSIGNED_CLASS: "Not satisfied"

Please indicate whether the reported EC50 of CCN(CC)CCCC1(O)c2ccccc2CCCC1c1ccc(OC)cc1 (racemic) is strictly below 200 nM. Satisfied

Please indicate whether the reported EC50 of COc1cncc(C2CCCc3ccccc3C2(O)CCCN(C)C)c1 (racemic) is strictly below 200 nM. Not satisfied

Please indicate whether the reported EC50 of OC1(CCCN2CCCCC2)c2ccccc2CCCC1c1ccc(Cl)cc1 (racemic) is strictly below 200 nM. Not satisfied

* * *

Biological target: GHS1A-receptor (Homo sapiens)
Construct: expressed in transfected cells; host or cells: HEK293
Experiment: Ghrelin-agonism in HEK293 cells (intracellular calcium, FLIPR)
Format: cell-based
Conditions: HEK293 cells permanently transfected with GHS1A-receptor, calcium fluorescence (fluo-4 or Kit-3), EC50 in M, read-out: pEC50 (converted)
Method: One day before the experiment, HEK293 cells, permanently transfected with the gene sequence for expression of the GHS1A-receptor, were seeded in poly-D-Lysine coated 96-well plates with clear bottom, and allowed to grow to […] of confluence on the next day. Then, cells were incubated with the calcium-sensitive intracellular fluorescent probe fluo-4 or Kit-3 for 1 h at 37° C. […]
Reported EC50 by item:
State the value with its unit after it.

- COMPOUND: "CCN(CC)CCCC1(O)c2ccccc2CCCC1c1ccc(C)cc1 (racemic)"
  EC50: "25.1 nM"
- COMPOUND: "CN(C)CCCC1(O)c2ccccc2CCCC1c1ccc(O)cc1 (racemic)"
  EC50: "2000 nM"
- COMPOUND: "COCCN(C)CCCC1(O)c2ccccc2CCCC1c1ccc(Cl)c(OC)c1 (racemic)"
  EC50: "15.8 nM"

Entry under review: CC(C)NCCCC1(O)c2ccccc2CCCC1c1cnc2ccccc2c1 (racemic) . Reported EC50? 631 nM

Entry under review: Cc1ccc(C2CCCc3ccccc3C2(O)CCCN2CCCCC2)cc1 (racemic) . Reported EC50? 1000 nM

Entry under review: CCN(CC)CCCC1(O)c2ccccc2CCCC1c1ccc(O)cc1 (racemic) . Reported EC50? 6310 nM

* * *

molecular target: GHS1A-receptor (Homo sapiens, UniProt Q92847); construct: expressed in transfected cells; host or cells: HEK293; assay: Ghrelin-agonism in HEK293 cells (intracellular calcium, FLIPR); format: cell-based; details: HEK293 cells permanently transfected with GHS1A-receptor, calcium fluorescence (fluo-4 or Kit-3), EC50 in M, read-out: pEC50 (converted)
Reported EC50 by item:
Note: unit nM is implicit; provide only the numeric part.

Hello, I am looking for reported EC50 with GHS1A-receptor (Homo sapiens, UniProt Q92847) for CC(=O)N1CCN(CCCC2(O)c3ccccc3CCCC2c2ccc(F)cc2F)CC1 (racemic) [Compound 60] . Could you help? 3980

Hello, I am looking for reported EC50 with GHS1A-receptor (Homo sapiens, UniProt Q92847) for Cc1cccc(C2CCCc3ccccc3C2(O)CCCN2CCOCC2)c1 (racemic) [Compound 25] . Could you help? 1580

Hello, I am looking for reported EC50 with GHS1A-receptor (Homo sapiens, UniProt Q92847) for CN(C)CCCC1(O)c2ccccc2CCCC1c1ccc(Cl)cc1 (single isomer, unassigned) [Compound 6] . Could you help? 10

* * *

test system: NMRI-mice; experiment: Acceleration of gastric emptying and small intestinal propulsion in NMRI-mice; format: in vivo; conditions: Mus musculus, sc; lowest active dose; subcutaneous, 30 min before phenol red test meal; stomach content 15 min after meal; active when >60% of animals below 0.9 extinction units; read-out: LAD (mg/kg) Gastric emptying
Where a name gives a salt, the structure may show the parent alone.
METRIC_NAME: minimal effective dose

- COMPOUND: "CCN(CC)CCCC1(O)c2ccccc2CCCC1c1ccc(OC)cc1 (racemic)"
  OBSERVED_MEASUREMENT: "> 10 mg/kg"
- COMPOUND: "CNCCCC1(O)c2ccccc2CCCC1c1ccc(Cl)cc1 (racemic)"
  OBSERVED_MEASUREMENT: "> 10 mg/kg"
- COMPOUND: "CN(C)CCCC1(O)c2ccccc2CCCC1c1ccc(O)cc1 (racemic)"
  OBSERVED_MEASUREMENT: "> 10 mg/kg"
- COMPOUND: "CCN(CC)CCCC1(O)c2ccccc2OCCC1c1ccc(Cl)c(OC)c1 (racemic)"
  OBSERVED_MEASUREMENT: "10 mg/kg"
- COMPOUND: "CN(C)CCCC1(O)c2ccccc2CCCC1c1ccc(F)cc1 (racemic)"
  OBSERVED_MEASUREMENT: "> 10 mg/kg"

Entry under review: Cc1ccc([C@H]2CCCc3ccccc3[C@]2(O)CCCN(C)C)cn1 (racemic) [Compound 16, hydrochloride] . Reported minimal effective dose? 10 mg/kg

Entry under review: CNCCCC1(O)c2ccccc2CCCC1c1ccc(C)cc1 (racemic) . Reported minimal effective dose? > 10 mg/kg

Entry under review: CCN(CC)CCCC1(O)c2ccccc2CCCC1c1ccc(Cl)cc1 (racemic) . Reported minimal effective dose? 10 mg/kg

Entry under review: CN(C)CCCC1(O)c2ccccc2CCCC1c1ccccc1 (single isomer, unassigned) [Compound 105] . Reported minimal effective dose? 10 mg/kg

Entry under review: COCCN(C)CCC[C@@]1(O)c2ccccc2CCC[C@@H]1c1ccc(Cl)cc1 (relative stereo) . Reported minimal effective dose? 10 mg/kg

Entry under review: COCCN(C)CCCC1(O)c2ccccc2CCCC1c1ccc(F)cc1 (racemic) . Reported minimal effective dose? > 40 mg/kg

Entry under review: COc1cc(C2CCCc3ccccc3C2(O)CCCN(C)C)ccc1Cl (racemic) . Reported minimal effective dose? > 10 mg/kg

Entry under review: CN(C)CCCC1(O)c2ccccc2CCCC1c1cnc2ccccc2c1 (racemic) . Reported minimal effective dose? > 10 mg/kg

Entry under review: COc1ccccc1C1CCOc2ccccc2C1(O)CCCN(C)C (racemic) . Reported minimal effective dose? > 10 mg/kg

Entry under review: COc1cncc(C2CCCc3ccccc3C2(O)CCCN(C)C)c1 (racemic) . Reported minimal effective dose? > 10 mg/kg

Entry under review: CCN(CC)CCCC1(O)c2ccccc2CCCC1c1ccc(F)cc1 (racemic) . Reported minimal effective dose? > 10 mg/kg

Entry under review: CN(C)CCCC1(O)c2ccccc2CCCC1c1ccc(Br)cc1 (racemic) . Reported minimal effective dose? > 10 mg/kg

Entry under review: COc1cc(C2CCCc3ccccc3C2(O)CCCN2CCC(O)C2)ccc1Cl (racemic) . Reported minimal effective dose? > 10 mg/kg

Entry under review: CNCCCC1(O)c2ccccc2CCCC1c1ccccc1 (racemic) . Reported minimal effective dose? > 10 mg/kg

* * *

biological target: GHS1A-receptor (Homo sapiens, UniProt Q92847); construct: expressed in transfected cells; host or cells: HEK293; experiment: Ghrelin-agonism in HEK293 cells (intracellular calcium, FLIPR); type: cell-based; details: HEK293 cells permanently transfected with GHS1A-receptor, calcium fluorescence (fluo-4 or Kit-3), EC50 in M, read-out: pEC50 (converted)
Reported EC50 by item:

Some solved entries appear below for comparison.
- COMPOUND: "CCNCCCC1(O)c2ccccc2CCCC1c1ccc(Cl)cc1 (racemic)"
  TESTED_SYSTEM: "GHS1A-receptor (Homo sapiens, UniProt Q92847)"
  OBSERVED_MEASUREMENT: "501 nM"
- COMPOUND: "CCN(CC)CCCC1(O)c2ccccc2OCCC1c1ccc(C)cc1 (racemic)"
  TESTED_SYSTEM: "GHS1A-receptor (Homo sapiens, UniProt Q92847)"
  OBSERVED_MEASUREMENT: "63.1 nM"
- COMPOUND: "COCCN(C)CCC[C@@]1(O)c2ccccc2CCC[C@@H]1c1ccc(Cl)cc1 (relative stereo)"
  TESTED_SYSTEM: "GHS1A-receptor (Homo sapiens, UniProt Q92847)"
  OBSERVED_MEASUREMENT: "251 nM"

Entry under review: CO[C@]1(CCCN(C)C)c2ccccc2CCC[C@@H]1c1ccc(Cl)cc1 (racemic) . Reported EC50? 1580 nM
